Origin of values: ChEMBL document CHEMBL6114991

Test system: 3T3-L1
Assay: Anti-adipogenic activity in mouse 3T3-L1 cells at 20 uM relative to control
Type: functional
Settings: time 72.0 hrs
Activity calls are given as the source filed them. The rule behind the calls is not given here.
readoutLabel: Activity

structureSmilesString | Activity
Cc1ccc(/C=C/c2ccc(-c3cc(C(=O)O)c4cc(OC(F)(F)F)ccc4n3)cc2)cc1 | inactive
O=C(O)c1cc(-c2ccc(C#Cc3ccc(F)cc3)cc2)nc2ccccc12 | inactive
O=C(O)c1cc(-c2ccc(/C=C/c3ccc(Cl)cc3)cc2)nc2ccccc12 | inactive
CCCCCCOC(=O)c1cc(-c2ccc(/C=C/c3ccc(C)cc3)cc2)nc2ccc(F)cc12 | inactive
Cc1ccc(/C=C/c2ccc(-c3cc(C(=O)O)c4cc(C)cc(Cl)c4n3)cc2)cc1 | inactive

Input: Could you share which Activity value was measured for "Cc1ccc(/C=C/c2ccc(-c3cc(C(=O)OC(C)C)c4cc(F)ccc4n3)cc2)cc1" ?
Output: inactive

Input: Could you share which Activity value was measured for "O=C(O)c1cc(-c2ccc(/C=C/c3ccccn3)cc2)nc2ccccc12" ?
Output: inactive

Input: Could you share which Activity value was measured for "CCCCOC(=O)c1cc(-c2ccc(/C=C/c3ccc(C)cc3)cc2)nc2ccc(F)cc12" ?
Output: inactive

Input: Could you share which Activity value was measured for "O=C(O)c1cc(-c2ccc(/C=C/c3ccccc3)cc2)nc2ccccc12" ?
Output: inactive

Input: Could you share which Activity value was measured for "COc1ccc2nc(-c3ccc(/C=C/c4ccc(C)cc4)cc3)cc(C(=O)O)c2c1" ?
Output: inactive

---

Tested on: 3T3-L1
Assay: Anti-adipogenic activity in mouse 3T3-L1 cells assessed as suppression of adipogenesis at 20 uM measured for 72 hrs by oil red O staining based analysis
Format: functional
readoutLabel: Activity (%)
Report the figure in % without appending any unit label.

Look over these answered cases.
structureSmilesString | testedTarget | readoutLabel | dataValue
CC(C)(C)c1ccc(/C=C/c2ccc(-c3cc(C(=O)O)c4ccccc4n3)cc2)cc1 | 3T3-L1 | Activity | 70
CC(C)(C)c1ccc(C#Cc2ccc(-c3cc(C(=O)O)c4ccccc4n3)cc2)cc1 | 3T3-L1 | Activity | 70
COc1ccc2nc(-c3ccc(/C=C/c4ccc(C)cc4)cc3)cc(C(=O)O)c2c1 | 3T3-L1 | Activity | 70
Cc1ccc(/C=C/c2ccc(-c3cc(C(=O)O)c4cc(F)ccc4n3)cc2)cc1 | 3T3-L1 | Activity | 70

Input: Could you share which Activity value was measured for "Cc1ccc(/C=C/c2ccc(-c3cc(C(=O)O)c4ccccc4n3)cc2)cc1" ?
Output: 70

---

Experiment: Tmax in Golden Syrian hamster at 100 mg/kg, po measured upto 24 hrs by LC-MS/MS analysis
Type: ADME, organism-based, Mesocricetus auratus
Settings: in vivo
readoutLabel: Tmax (min)
Report the figure in min without appending any unit label.

Input: Could you share which Tmax value was measured for "Cc1ccc(/C=C/c2ccc(-c3cc(C(=O)O)c4cc(F)ccc4n3)cc2)cc1" ?
Output: 15

---

Assay: MRT in Golden Syrian hamster at 100 mg/kg, po measured upto 24 hrs by LC-MS/MS analysis
Type: ADME, organism-based, Mesocricetus auratus
Details: in vivo
readoutLabel: MRT (h)
Report the figure in h without appending any unit label.

Input: Could you share which MRT value was measured for "Cc1ccc(/C=C/c2ccc(-c3cc(C(=O)O)c4cc(F)ccc4n3)cc2)cc1" ?
Output: 2.89
